Documented IC50 across a set of compounds
test: Binding affinity to human RFC expressed in Chinese hamster PC43-10 cells assessed as antiproliferative activity measured as reduction in cell growth after 96 hrs by Cell-Titer Blue assay

[
  {
    "SAMPLE_SMILES": "Nc1nc2[nH]c(CCCCc3ccc(C(=O)N[C@@H](CCC(=O)O)C(=O)O)nc3)cc2c(=O)[nH]1",
    "IC50": "> 1000 nM"
  },
  {
    "SAMPLE_SMILES": "Nc1nc2[nH]c(CCCCc3csc(C(=O)N[C@@H](CCC(=O)O)C(=O)O)c3)cc2c(=O)[nH]1",
    "IC50": "> 1000 nM"
  },
  {
    "SAMPLE_SMILES": "Nc1nc2[nH]c(CCCc3ccc(C(=O)N[C@@H](CCC(=O)O)C(=O)O)c(F)c3)cc2c(=O)[nH]1",
    "IC50": "62 nM"
  },
  {
    "SAMPLE_SMILES": "Nc1nc2[nH]c(CCCCc3csc(C(=O)N[C@@H](CCC(=O)O)C(=O)O)c3F)cc2c(=O)[nH]1",
    "IC50": "> 1000 nM"
  },
  {
    "SAMPLE_SMILES": "Nc1nc2[nH]c(CCCCc3ccc(C(=O)N[C@@H](CCC(=O)O)C(=O)O)cc3)cc2c(=O)[nH]1",
    "IC50": "> 1000 nM"
  },
  {
    "SAMPLE_SMILES": "Nc1nc2[nH]c(CCCc3ccc(C(=O)N[C@@H](CCC(=O)O)C(=O)O)s3)cc2c(=O)[nH]1",
    "IC50": "106 nM"
  },
  {
    "SAMPLE_SMILES": "Nc1nc2[nH]c(CCCc3ccc(C(=O)N[C@@H](CCC(=O)O)C(=O)O)cc3)cc2c(=O)[nH]1",
    "IC50": "304 nM"
  }
]
